- TARGET SYSTEM: HIV protease (Human immunodeficiency virus type 1 group M subtype B)
- Construct: HIV protease consists of 99 amino acids and is evidently split off by itself from the pol polyprotein
- PROTOCOL NOTES: Inhibition of HIV protease (cleavage of H-Ser-Phe-Asn-Phe-Opr-Gln-Ile-OH, HPLC)
- Type: biochemical
- CONDITION DESCRIPTION: inhibitor concentration at which the cleavage rate is halved; pH 6, 2 hours; read-out: IC50
pIC50: −log10 of the molar value. Counter-ions that a name gives are not always drawn.
READOUT TYPE: pIC50

I = CC(C)[C@H](NC(=O)[C@@H](Cc1cccs1)CS(=O)(=O)C(C)(C)C)C(=O)N[C@@H](Cc1ccccc1)[C@@H](O)[C@H](O)[C@H](Cc1ccccc1)NC(=O)[C@@H](NC(=O)[C@@H](Cc1cccs1)CS(=O)(=O)C(C)(C)C)C(C)C
II = CC(C)[C@H](NC(=O)[C@@H](N)CCS(C)(=O)=O)C(=O)N[C@@H](Cc1ccccc1)[C@@H](O)[C@H](O)[C@H](Cc1ccccc1)NC(=O)[C@@H](NC(=O)[C@@H](N)CCS(C)(=O)=O)C(C)C [Example 89, dihydrochloride]
*Q* Kindly identify the item with the lower pIC50 figure among these two: I and II Pick one and reply with its label.
*A* I
(I: 6.59, II: 8.74)

====

- TARGET SYSTEM: HIV protease (Human immunodeficiency virus type 1 group M subtype B, UniProt P04585)
- Construct: HIV protease consists of 99 amino acids and is evidently split off by itself from the pol polyprotein
- PROTOCOL NOTES: Inhibition of HIV protease (cleavage of H-Ser-Phe-Asn-Phe-Opr-Gln-Ile-OH, HPLC)
- Format: biochemical
- CONDITION DESCRIPTION: inhibitor concentration at which the cleavage rate is halved; pH 6, 2 hours; read-out: IC50
Where a name gives a salt, the structure may show the parent alone.
READOUT TYPE: IC50 (nM)

Known IC50 results, listed for orientation:
CC(C)(C)OC(=O)N[C@@H](CC1CCCCC1)[C@H](O)[C@H](O)[C@H](CC1CCCCC1)NC(=O)OC(C)(C)C [Example 48]	80000
CC(C)[C@H](NC(=O)[C@H](Cc1ccccc1)NC(=O)OC(C)(C)C)C(=O)N[C@@H](CC1CCCCC1)[C@H](O)[C@@H](O)[C@H](CC1CCCCC1)NC(=O)[C@@H](NC(=O)[C@H](Cc1ccccc1)NC(=O)OC(C)(C)C)C(C)C [Example 45]	1500
CC(C)C[C@H](NC(=O)OC(C)(C)C)C(=O)N[C@H](C(=O)N[C@@H](Cc1ccccc1)[C@H](O)[C@@H](O)[C@H](Cc1ccccc1)NC(=O)[C@@H](NC(=O)[C@H](CC(C)C)NC(=O)OC(C)(C)C)C(C)C)C(C)C [Example 88]	1000
CC(C)[C@H](NC(=O)C(Cc1ccccc1)C[S+]([O-])Cc1ccccc1)C(=O)N[C@@H](Cc1ccccc1)[C@@H](O)[C@H](O)[C@H](Cc1ccccc1)NC(=O)[C@@H](NC(=O)C(Cc1ccccc1)C[S+]([O-])Cc1ccccc1)C(C)C (stereo partly shown) [Example 121]	22
CC(C)[C@H](NC(=O)[C@H](N)Cc1ccccc1)C(=O)N[C@@H](Cc1ccccc1)[C@H](O)[C@@H](O)[C@H](Cc1ccccc1)NC(=O)[C@@H](NC(=O)[C@H](N)Cc1ccccc1)C(C)C [Example 61, dihydrochloride]	400

a = CC(C)[C@H](NC(=O)[C@H](Cc1ccc2ccccc2c1)NS(C)(=O)=O)C(=O)N[C@@H](Cc1ccccc1)[C@@H](O)[C@H](O)[C@H](Cc1ccccc1)NC(=O)[C@@H](NC(=O)[C@H](Cc1ccc2ccccc2c1)NS(C)(=O)=O)C(C)C [Example 125]
b = CC(C)[C@H](NC(=O)[C@@H](N)CCC(=O)O)C(=O)N[C@@H](Cc1ccccc1)[C@H](O)[C@@H](O)[C@H](Cc1ccccc1)NC(=O)[C@@H](NC(=O)[C@@H](N)CCC(=O)O)C(C)C [Example 82]
*Q* Kindly identify the item with the lower IC50 figure among these two: a and b Pick one and reply with its label.
*A* a
(a: 0.75 nM, b: 9 nM)
